Reference for the values: PubChem BioAssay (NCI)

- Test system: HT29 colon
- experiment.notes: NCI tumour cell line growth inhibition, 48 h
Recorded GI50, one value per entry.

Lab book: GI50 of "COc1ccc2sc3cccc(NCCN(C)C)c3c(=O)c2c1" noted as 2.03 µM

Lab book: GI50 of "COc1cc(/C=C2\C[C@H]3[C@@H]4CC=C5C[C@@H](O)CC[C@]5(C)[C@H]4CC[C@]3(C)[C@H]2O)ccc1OCCN1CCCC1" noted as 13.2 µM

* * *

- Test system: M14 melanoma
- experiment.notes: NCI tumour cell line growth inhibition, 48 h
Recorded TGI, one value per entry.
The reply should be a number in µM, with the unit left off.

>  <molecule>
Oc1ccc([Te]CCNCC[Te]c2ccc(O)cc2)cc1

>  <TGI (µM)>
55.3

$$$$

Lab book: TGI of "CN(C)CCNc1nc2ccccc2c2c1CCCC2" noted as 32.5

Lab book: TGI of O=C1c2[nH]cc(CNC3CN4CCC3CC4)c2C(=O)c2c1c(O)c1ccccc1c2O (stereo not given) noted as 11.7

Lab book: TGI of COC(=O)C(Cc1nc2ccccc2[nH]c1=O)/C(=N\NC(C)(C)C)C(=O)Nc1c(C)cc(Br)cc1C (stereo not given) noted as 49.3

Lab book: TGI of "CCC(CC)c1nc(Nc2ccc(C(=O)OC)cc2)c2ccccc2n1" noted as 21.6

Lab book: TGI of "CSc1ccc(-c2ccccc(=O)c2O)cc1" noted as 2.68
